Test system: SK-MEL-28
assay.name: NCI tumour cell line growth inhibition, 48 h
Calls of active or inactive are those of the source. No stated cut-off is given here; in the data, active = GI50 up to about 1.1 µM and inactive = higher. Where a SMILES comes first, the peptide text is derived from it.

compound	GI50
CCS(=O)(=O)c1c2cc(OC)ccc2nc2ccc(OC)cc12	> 100 µM (inactive)
CC(=O)C(=NNc1ccc(-n2c(C)nc3ccc(Br)cc3c2=O)cc1)C(C)=O	> 100 µM (inactive)
CN(CN1C(=O)C2Cc3ccccc3CN2C1=O)c1ccccn1 (stereo not drawn)	> 100 µM (inactive)
CC(C)(C)c1cc(C2c3cc4c(cc3OC(O)(CO)C2C(=O)O)OCO4)cc(C(C)(C)C)c1O.CC(C)(C)c1cc(C2c3cc4c(cc3OC3(O)COC(=O)C23)OCO4)cc(C(C)(C)C)c1O (stereo not drawn)	11.3 µM (inactive)
C[N+](C)(C)CC(=O)N/N=C(\C(=O)Nc1ccc(Cl)cc1)C1C(=O)N(c2ccccc2)N=C1N (stereo not drawn)	> 100 µM (inactive)
CC(C)CC(NC(=O)C(Cc1ccccc1)NC(=O)C(Cc1c[nH]c2ccccc12)NC(=O)CNC(=O)C(N)Cc1ccc(O)cc1)C(=O)O (stereo not drawn) (H-YGWFL-OH; configuration not given here)	95.3 µM (inactive)
CC(=O)OCC1OC(OC2C(COC(C)=O)OC(Sc3ccccc3C)C(OC(C)=O)C2OC(C)=O)C(OC(C)=O)C(OC(C)=O)C1OC(C)=O (stereo not drawn)	> 100 µM (inactive)
Cc1ncc(CSC(=N)N)n1Cc1ccccc1	> 100 µM (inactive)

---

Test system: SF-539
assay.name: NCI tumour cell line growth inhibition, 48 h
The source made the active and inactive calls. Cut-off read from the data, not from the text of the source: active = GI50 up to about 1.1 µM and inactive = higher.
Outcomes: active, inactive

molecule	assayed.system	category.label
C/C(=N\NC(N)=S)c1cc(C)c(C)cc1C	SF-539	inactive
CN(C)CCNC1=CC(=O)c2nc3ccccc3c3ccnc1c23	SF-539	inactive
CC1(C)CC2C(=O)c3ccccc3NC2c2ccccc21 (stereo not drawn)	SF-539	inactive
Cc1ccc(S(=O)(=O)N2C3C=CC(C3)[C@@H]2C(Cl)(Cl)Cl)cc1 (stereo partly drawn)	SF-539	inactive
O=c1[nH]cnc2c(COCCO)c[nH]c12	SF-539	inactive
CCOC(=O)C(=[N+]=[N-])C(=O)C1(C(=O)OCC)CCN(C(=O)c2ccccc2)C1=O (stereo not drawn)	SF-539	inactive
O=[N+]([O-])c1ccc(/C(Cl)=C/c2ccc(/C=C(\Cl)c3ccc([N+](=O)[O-])cc3[N+](=O)[O-])cc2)c([N+](=O)[O-])c1	SF-539	inactive
COc1cc(CCCC(O)COc2cccc3c2C2(O)CCCCCC32)cc(OC)c1 (stereo not drawn)	SF-539	inactive
O=S1(=O)CCC2=CC(C(F)(F)F)=CC(C(F)(F)F)=CN21	SF-539	inactive
OC(CC1SCCCS1)c1ccccc1 (stereo not drawn)	SF-539	inactive
CCOC(=O)C1(C(=O)OCC)Nc2cccnc2N(C)N1	SF-539	inactive
CCOC(=O)C(Cc1ccc(OC(=O)OC(C)(C)C)cc1)NC(=O)OC(C)(C)C (stereo not drawn)	SF-539	inactive
Nc1cc(S(N)(=O)=O)ccc1SSc1ccc(S(N)(=O)=O)cc1N	SF-539	inactive
COC1(C(C)(C)C)C=C(C(C)(C)C)P(=O)(O)O1 (stereo not drawn)	SF-539	inactive
CN(C)CCNc1ccc2c(=O)n(CCN(C)C)c(=O)n3c4ccc([N+](=O)[O-])cc4c(=O)c1c23	SF-539	active
C=C1C2CC(OC(C)=O)C3(C)C(c4ccoc4)OC(=O)[C@@H](O)[C@]13OC1C[C@H](OC(C)=O)C(C)(C)[C@H](CC(=O)OC)[C@]12C (stereo partly drawn)	SF-539	inactive
Cc1ccc(S(=O)(=O)CNC(=O)C(O)(O)C(F)(F)F)cc1	SF-539	inactive
O=C(CC(=O)CC(O)(C(F)(F)F)C(F)(F)F)CC(O)(C(F)(F)F)C(F)(F)F	SF-539	inactive
CC(=O)NC1CONC1=O (stereo not drawn)	SF-539	inactive
O=C(NCc1ccccc1)c1cnc(Cl)cn1	SF-539	inactive
CN(C)C(=S)/N=c1\ss/c(=N\C(=S)N(C)C)n1C1CCCCC1	SF-539	inactive
O=[N+]([O-])c1ccc(O)c(/C=N/CC2CCCN3CCCCC23)c1 (stereo not drawn)	SF-539	inactive
Nc1ncnc2c1ncn2[C@@H]1C[C@@H]1CO	SF-539	inactive
COC(=O)/C(=C\c1ccco1)P(=O)(OC)OC	SF-539	inactive
O[C@H]1[C@H](O)[C@@H](O)[C@@]2(O)C[C@@H](O)[C@@H]1N2	SF-539	inactive
N=C(N)Nc1nc2cc([N+](=O)[O-])ccc2[nH]1	SF-539	inactive
COc1ccc2oc(S(=O)(=O)N3CC(CCl)c4ccc([N+](=O)[O-])cc43)cc2c1 (stereo not drawn)	SF-539	active
c1cncc(C2c3[nH]c4ccccc4c3CCN2CCCN2CCCCC2)c1 (stereo not drawn)	SF-539	inactive
c1ccc(CCCNc2nnnc3ccccc23)cc1	SF-539	inactive
C=CCN1C(=O)/C(=C/c2ccccc2)N=C1SC1OC(COC(=O)c2ccccc2)C(OC(=O)c2ccccc2)C1OC(=O)c1ccccc1 (stereo not drawn)	SF-539	inactive
O=C(Nc1cc(Cl)cc(Cl)c1)/C(Cc1nc2ccccc2nc1O)=N/NC(=O)c1ccncc1	SF-539	inactive
O=C(Nc1cc2cc([N+](=O)[O-])ccc2oc1=O)c1cccs1	SF-539	inactive
Cc1cc(S(=O)(=O)Nc2nc(N)n[nH]2)c(SCC(=O)O)cc1Cl	SF-539	inactive
[N-]=[N+]=NC1(Cc2ccccc2)C(=O)Nc2ccccc2C1=O (stereo not drawn)	SF-539	inactive
Nc1c(Br)cc(-c2cc(Br)c(N)c(Br)c2)cc1Br	SF-539	inactive
C=CC(C)(C)c1c(OC)oc2ccc(OC)c(C)c2c1=O	SF-539	inactive
O=[N+]([O-])c1ccc2c3c1[C@@H]1O[C@@H]1c1cccc(c1-3)[C@@H]1O[C@H]21	SF-539	inactive
CC(CNC(N)=O)NC(N)=O (stereo not drawn)	SF-539	inactive
Cc1c/c(=N\c2ccc3c(c2)c(N)cc(C)[n+]3C)nc(N)n1C	SF-539	inactive
CC1(C)C(=O)N(O)C(C)(C)N1O	SF-539	inactive
CCOC(=O)c1c(C)n(C)c2c1cc(O)c1[nH]c3c(c12)CCCC3	SF-539	inactive
Cc1cccc(C)c1NC(=O)C1C(=O)N(c2c(C)cccc2C)C(=O)/C1=N\N (stereo not drawn)	SF-539	inactive
O=[PH](O)c1cc2ccccc2c2ccccc12	SF-539	inactive

---

Test system: HCT-15
Reported log10 of GI50 by item:
parameter.measured: log10 of GI50 (log10 of the value in µM)

compound	assayed.system	log10 of GI50
Cn1cnc([N+](=O)[O-])c1[Se]c1ncnc2nc[nH]c12	HCT-15	1.19
Cc1n[n+]([O-])c(C)cc1[N+](=O)[O-]	HCT-15	1.20
O=CC1C(=O)Nc2nc3ccccc3n2C1c1ccccc1 (stereo not drawn)	HCT-15	1.18
COc1ccc2c(c1)c[n+](C)c1c3cc(OC)c(OC)cc3ccc21	HCT-15	1.15
CN(C)CCNC1=CC(=O)c2nc3ccccc3c3ccnc1c23	HCT-15	0.51
CCOC(=O)c1c(C)n(C)c2c1cc(O)c1[nH]c3c(c12)CCCC3	HCT-15	1.43
COc1cc(CCc2ccc(N)cc2)cc(OC)c1OC	HCT-15	1.64
Cc1ccc(S(=O)(=O)N2C3C=CC(C3)[C@@H]2C(Cl)(Cl)Cl)cc1 (stereo partly drawn)	HCT-15	1.28
COC(=O)c1c(C)cc2c(c1O)C1(O)C(=O)c3cc4c(c(O)c3C(=O)C1(OC)C(O)C2)C(=O)C=C(NC1OC(C)C(OC)C(O)C1OC)C4=O (stereo not drawn)	HCT-15	-0.97
O=C1Sc2cc3ccccc3cc2C(=O)Sc2cc3ccccc3cc21	HCT-15	1.36
O=C1c2ccccc2C(=O)c2[nH]c(Cc3ccc(F)cc3)nc21	HCT-15	0.81
CC(=O)Oc1ccc2c(c1)c1c(OC(C)=O)c3ccccc3c(OC(C)=O)c1n2Cc1cccc(C)c1	HCT-15	1.73
CC(=O)O[C@H]1C[C@H](O[C@H]2[C@@H](O)C[C@H](O[C@H]3[C@@H](O)C[C@H](O[C@H]4CC[C@@]5(C)[C@H](CC[C@@H]6[C@@H]5CC[C@]5(O)[C@@H](C7=CC(=O)OC7)CC[C@]65O)C4)O[C@@H]3C)O[C@@H]2C)O[C@H](C)[C@H]1O[C@@H]1O[C@H](CO)[C@@H](O)[C@H](O)[C@H]1O	HCT-15	-0.53
CC1=CC2CC(C)=C(CC[C@]3(C)CC[C@H]([C@@H](C)C(=O)O)OO3)C(C)(C)C2CC1 (stereo partly drawn)	HCT-15	-0.17
COc1cccc(CCn2c(N)c(C(=O)O)c3ccc([N+](=O)[O-])cc3c2=O)c1	HCT-15	1.50
O=C(O)c1cnccc1-c1cc(=O)[nH]n1-c1ccccc1	HCT-15	1.41
CC(C)/C(Cl)=N\OC(=O)Nc1ccccc1F	HCT-15	1.21
